tested_system: T1, human GFRAL (human, UniProt Q6UXV0 19-394)
T1 sequence (looked up): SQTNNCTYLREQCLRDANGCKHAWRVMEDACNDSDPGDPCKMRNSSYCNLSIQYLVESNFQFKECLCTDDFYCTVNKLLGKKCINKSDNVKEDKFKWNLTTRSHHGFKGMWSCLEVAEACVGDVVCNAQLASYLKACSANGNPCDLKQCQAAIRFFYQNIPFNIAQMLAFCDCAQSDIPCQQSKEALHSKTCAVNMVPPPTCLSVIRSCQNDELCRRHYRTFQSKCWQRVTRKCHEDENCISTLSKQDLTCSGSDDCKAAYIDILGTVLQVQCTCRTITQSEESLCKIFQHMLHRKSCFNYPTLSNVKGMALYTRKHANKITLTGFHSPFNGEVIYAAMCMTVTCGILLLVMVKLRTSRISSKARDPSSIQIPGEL
method_notes: cell-based or functional assay
result_type: GDF15 activity (EC50, pM)
Write the quantity with the unit trailing the number.

Some binders with recorded GDF15 activity (EC50, pM):
[
  {
    "binder": "MLC002 (ligand, Moiety A (HOOC-(CH2)16-CO-gGlu-2XADO) on 26K of GLP-1 (20K of fusion polypeptide)) HGEGTFTSDVSSYLEEQAAKEFIAWLVRGGGGQEPGQEPGQEPGQEPGQEPGQEPGQEPGQEPGAQPGAQPARQGDHCPLGPGRCCRLHTVRASLEDLGWADWVLSPREVQVTMCIGACPSQFRAANLHAQIKTSLHRLRPDTVPAPCCVPASYNPMVLIQRTDTGVSLQTYDDLLARDCHCI",
    "readout_value": "17.9 pM"
  },
  {
    "binder": "MLC085 (ligand, Moiety B (HOOC-(CH2)16-CO-gGlu-2XADO-EDA-CO-CH2) on 37C of Linker (68C of fusion polypeptide)) HGEGTFTSDVSSYLEEQAAKEFIAWLVRGGGGQEPGAQPGQEPGAQPGQEPGAQPGQEPGAQPGQEPCQAPGQEPGAQPGAQPGAQPGAQPGAQPGAQPGAQPGAQPGAQPARQGDHCPLGPGRCCRLHTVRASLEDLGWADWVLSPREVQVTMCIGACPSQFRAANLHAQIKTSLHRLKPDTVPAPCCVPASYNPMVLIQKTDTGVSLQTYDDLLAKDCHCI",
    "readout_value": "22 pM"
  }
]

Here is the next item to consider.
Problem: Form field: reported GDF15 activity (EC50, pM) of MLC003 (ligand) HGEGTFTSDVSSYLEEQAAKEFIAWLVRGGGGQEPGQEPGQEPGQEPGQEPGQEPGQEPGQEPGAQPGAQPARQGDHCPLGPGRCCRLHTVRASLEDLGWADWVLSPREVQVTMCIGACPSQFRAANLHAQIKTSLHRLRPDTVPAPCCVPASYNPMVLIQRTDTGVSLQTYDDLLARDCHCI
Solution: 55 pM
